Molecular target: Protein mono-ADP-ribosyltransferase TIPARP (Homo sapiens) (UniProt Q7Z3E1)
Sequence (whole entry): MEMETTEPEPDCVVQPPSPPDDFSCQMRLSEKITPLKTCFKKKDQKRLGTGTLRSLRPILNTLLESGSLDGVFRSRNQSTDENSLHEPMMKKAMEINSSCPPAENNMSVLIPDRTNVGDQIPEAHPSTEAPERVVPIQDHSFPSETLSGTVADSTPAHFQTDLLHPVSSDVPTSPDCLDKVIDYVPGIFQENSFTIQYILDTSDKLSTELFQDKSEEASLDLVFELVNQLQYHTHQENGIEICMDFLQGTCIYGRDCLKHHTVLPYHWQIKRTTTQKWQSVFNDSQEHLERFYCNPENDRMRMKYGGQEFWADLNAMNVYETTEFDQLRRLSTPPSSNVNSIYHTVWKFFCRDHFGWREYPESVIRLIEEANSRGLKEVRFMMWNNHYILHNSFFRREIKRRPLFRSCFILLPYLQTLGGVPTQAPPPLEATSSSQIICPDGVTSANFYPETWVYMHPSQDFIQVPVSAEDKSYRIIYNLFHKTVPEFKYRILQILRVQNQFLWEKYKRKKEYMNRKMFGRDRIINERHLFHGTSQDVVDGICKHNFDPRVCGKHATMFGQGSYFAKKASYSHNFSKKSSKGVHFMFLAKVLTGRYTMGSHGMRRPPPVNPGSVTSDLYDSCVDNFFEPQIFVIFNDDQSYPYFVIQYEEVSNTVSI
Assay: Inhibition of human recombinant N-terminal FLAG tagged PARP7 (400 to 657 end residues) at 100 nM incubated for 1 hr by ELISA assay relative to control
PARAMETER MEASURED: inhibition
Remember to quote the unit after the number.

// query Fill in the blank: the reported inhibition of "O=C(C1CN(CC2(Nc3cn[nH]c(=O)c3C(F)(F)F)CC2)C1)N1CCN(c2ncc(C(F)(F)F)cn2)CC1" is ____.
// result 39.6%

// query Recorded inhibition of C[C@@H](CN1CCC(C(=O)N2CCN(c3ncc(C(F)(F)F)cn3)CC2)C1)Nc1cn[nH]c(=O)c1C(F)(F)F (stereo partly drawn) , please.
// result 44.9%

// query Which inhibition is reported for this molecule? "C[C@@H](CN1CC(C(=O)N2CCN(c3ccc(C(F)(F)F)cn3)CC2)C1)Nc1cn[nH]c(=O)c1C(F)(F)F"
// result 82%

// query Please report the recorded inhibition for "Cc1cnc(N2CCN(C(=O)C3CN(C[C@H](C)Nc4cn[nH]c(=O)c4C(F)(F)F)C3)CC2)nc1" .
// result 51.4%

// query Requested read-out: inhibition. Entry: "C[C@@H](CN1CC(C(=O)NC2CN(c3ncc(C(F)(F)F)cn3)C2)C1)Nc1cn[nH]c(=O)c1C(F)(F)F"
// result 51%

// query I'd like to know its inhibition. The molecule in question is CC1CN(c2ncc(C(F)(F)F)cn2)CC(C)N1C(=O)C1CN(C[C@H](C)Nc2cn[nH]c(=O)c2C(F)(F)F)C1 (stereo partly drawn)
// result 77%

// query Tell me the measured inhibition of "C[C@@H](CN1CC(C(=O)N2CCN(c3ncc(-c4ccc(C(F)(F)F)cc4)cn3)CC2)C1)Nc1cn[nH]c(=O)c1C(F)(F)F" , please.
// result 40%

// query Using the record for "C[C@@H](CN1CC(C(=O)N2CCN(c3ncc(Cl)cn3)CC2)C1)Nc1cn[nH]c(=O)c1C(F)(F)F" , report its inhibition.
// result 75.5%

// data source = ChEMBL document CHEMBL5316291
